Listing of entries alongside the reported IC50.
Test system: MiaPaCa-2 cells
Experiment: Cytotoxicity assay in MiaPaCa-2 (XTT, 72 h)
Type: cell-based
Conditions: XTT, read-out: Cell cytotoxicity assay IC50 in range

{"MOLECULE": "O=C(NCC1=NOC(COc2cccnc2-c2cccnc2)C1)c1ccc2nccn2c1 (single isomer, unassigned) [Example 7b]", "VAL": "> 250 nM"}
{"MOLECULE": "O=C(NCC1=NOC(COc2cc(Cl)cnc2-c2ccc(F)nc2)C1)c1ccc2nccn2c1 (single isomer, unassigned) [Example 14a]", "VAL": "> 250 nM"}

Okay, next one:
Recorded IC50 of Cc1ccc(OCC2CC(CNC(=O)c3ccc4nccn4c3)=NO2)c(-c2ccc(F)nc2)n1 (single isomer, unassigned) [Example 12b] , please. < 50 nM
